Numbers sourced from ChEMBL document CHEMBL2010694.

- Test system: Brain
- Assay Protocol: Drug uptake in Sprague-Dawley rat brain at 10 mg/kg, po by LC-MS/MS analysis
- Type: ADME, organism-based
- Design: dose 10 mg/kg, route oral
- Applied Conditions: in vivo, read-out: Drug uptake
Measurement Type: concentration (nM)

Line Notation | Unit String | concentration
CC(C)S(=O)(=O)NC[C@H]1CC[C@H](NC(=O)CN2CC(C)(C)c3cc(Cl)ccc32)CC1 | nM | 50
CC(C)S(=O)(=O)NC[C@H]1CC[C@H](NC(=O)CN2C(=O)CCc3cc(Cl)ccc32)CC1 | nM | 17
CC(C)S(=O)(=O)NC[C@H]1CC[C@H](NC(=O)CN2CCc3cc(F)ccc32)CC1 | nM | 117
Cc1cc2ccccc2n1CC(=O)N[C@H]1CC[C@H](CNS(=O)(=O)C(C)C)CC1 | nM | 49

(I) CC(C)S(=O)(=O)NC[C@H]1CC[C@H](NC(=O)Cc2cn(C)c3ccccc23)CC1
(II) CC(C)S(=O)(=O)NC[C@H]1CC[C@H](NC(=O)Cc2c[nH]c3ccccc23)CC1
(III) CC(C)S(=O)(=O)NC[C@H]1CC[C@H](NC(=O)CCN2CCc3ccccc32)CC1
(IV) CC(C)S(=O)(=O)NC[C@H]1CC[C@H](NC(=O)Cn2ccc3cc(F)c(F)cc32)CC1
(V) CC(C)S(=O)(=O)NC[C@H]1CC[C@H](NC(=O)CN2CCc3c2ccc(F)c3F)CC1
Output the entries ranked by concentration from maximum down to minimum. # the answer lists labels in the order requested
IV, V, II, I, III
(IV: 328 nM, V: 105 nM, II: 54 nM, I: 17 nM, III: 7 nM)

====

- Assay Protocol: Half life in Sprague-Dawley rat plasma at 2 mg/kg, po and 1 mg/kg, iv after 24 hrs wash out period by HPLC analysis
- Format: ADME, organism-based
Measurement Type: half-life (h)

(1) CC(C)S(=O)(=O)NC[C@H]1CC[C@H](NC(=O)Cn2ccc3cc(Cl)ccc32)CC1
(2) CC(C)S(=O)(=O)NC[C@H]1CC[C@H](NC(=O)CN2CCc3cc(Cl)ccc32)CC1
Hey, which is lower on measured half-life, 1 or 2 ? Lab log: write the label of the selected item as the result.
2
(2: 4.4 h, 1: 7.2 h)

====

- Target Or System: Cytochrome P450 3A4 (Homo sapiens)
- Sequence (P08684 whole entry): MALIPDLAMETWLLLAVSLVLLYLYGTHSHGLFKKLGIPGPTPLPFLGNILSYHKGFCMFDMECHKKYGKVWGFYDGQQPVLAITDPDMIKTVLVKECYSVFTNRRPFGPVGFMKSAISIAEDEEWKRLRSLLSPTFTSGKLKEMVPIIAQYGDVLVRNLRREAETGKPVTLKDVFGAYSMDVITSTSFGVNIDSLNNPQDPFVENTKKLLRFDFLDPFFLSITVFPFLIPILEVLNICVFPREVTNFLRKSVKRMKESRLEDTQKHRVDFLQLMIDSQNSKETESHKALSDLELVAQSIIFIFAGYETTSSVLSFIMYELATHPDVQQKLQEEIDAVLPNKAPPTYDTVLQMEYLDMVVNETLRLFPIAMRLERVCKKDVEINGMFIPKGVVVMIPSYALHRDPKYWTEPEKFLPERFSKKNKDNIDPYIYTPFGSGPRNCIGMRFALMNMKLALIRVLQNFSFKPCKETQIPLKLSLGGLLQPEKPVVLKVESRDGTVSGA
Measurement Type: IC50 (nM)
# value in nM; strip the unit string

Entry "CC(C)S(=O)(=O)NC[C@H]1CC[C@H](NC(=O)CN2CCc3cc(Cl)ccc32)CC1" needs its IC50 filled in; supply it.
700

====

- System: Liver microsomes
- Assay Protocol: Intrinsic clearance in human liver microsomes at 1 uM by LC/MS analysis
- Type: ADME, Microsome
Measurement Type: CLH (L/min)

As a guide, the following entries are already answered.
Line Notation | Target Or System | Result
CC(C)S(=O)(=O)NC[C@H]1CC[C@H](NC(=O)CN2CCCc3cc(Cl)ccc32)CC1 | Liver microsomes | 2.8
CC(C)S(=O)(=O)NC[C@H]1CC[C@H](NC(=O)Cn2c(=O)sc3cc(Cl)ccc32)CC1 | Liver microsomes | 1
Cc1ccc2c(c1)CCN2CC(=O)N[C@H]1CC[C@H](CNS(=O)(=O)C(C)C)CC1 | Liver microsomes | 3.1
CC(C)S(=O)(=O)NC[C@H]1CC[C@H](NC(=O)CCN2CCc3ccccc32)CC1 | Liver microsomes | 5.8
CC(C)S(=O)(=O)NC[C@H]1CC[C@H](NC(=O)CN2CCc3cc(Cl)ccc32)CC1 | Liver microsomes | 3.6
CC(C)S(=O)(=O)NC[C@H]1CC[C@H](NC(=O)Cn2ccc3ccccc32)CC1 | Liver microsomes | 1

(I) CC(C)S(=O)(=O)NC[C@H]1CC[C@H](NC(=O)CN2CCc3c2ccc(F)c3F)CC1
(II) CC(C)S(=O)(=O)NC[C@H]1CC[C@H](NC(=O)Cc2cn(C)c3ccccc23)CC1
(III) CC(C)S(=O)(=O)NC[C@H]1CC[C@H](NC(=O)CN2CCOc3cc(Cl)ccc32)CC1
Form: Sort by [CLH] Order [ ascending ] # the answer lists labels in the order requested
II, III, I
(II: 1.2 L/min, III: 2.9 L/min, I: 4.5 L/min)
